B1: Hairpin Ribozyme (parent)
chain: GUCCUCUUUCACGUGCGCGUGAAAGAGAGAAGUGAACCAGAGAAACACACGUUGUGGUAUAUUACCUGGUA

Variants of: B1
Assay: self-cleavage, relative activity (ratio to wild type); higher = more cleavage; co-transcriptional
Would you mind telling me the reported self-cleavage of each entry?
Answers are plain numbers.

A selection of reference data follows.
{"variantId": "U9C A39G", "self-cleavage": 0.283}
{"variantId": "G15U A26U", "self-cleavage": 0.831}

I have 7 variants here; please give me self-cleavage for each one.
1. A22C U58C
2. U2C A23C
3. U14A C46U
4. A30C G54C
5. G54C U70C
6. A31C G40C
7. U8G G54A

A:
1. 0.94
2. 0.144
3. 0.126
4. 0.173
5. 0.146
6. 0.0931
7. 0.456

I have 5 variants here; please give me self-cleavage for each one.
1. C10U A41G
2. C4U U63G
3. C6G A59U
4. A44G G56A
5. G54A A64C

A:
1. 0.765
2. 0.103
3. 0.192
4. 0.191
5. 0.152
